- Experimental Target: T1, recombinant human soluble gpNMB (recombinant human gpNMB-FLAG-His) (human, UniProt Q14956 23-498)
- T1 sequence: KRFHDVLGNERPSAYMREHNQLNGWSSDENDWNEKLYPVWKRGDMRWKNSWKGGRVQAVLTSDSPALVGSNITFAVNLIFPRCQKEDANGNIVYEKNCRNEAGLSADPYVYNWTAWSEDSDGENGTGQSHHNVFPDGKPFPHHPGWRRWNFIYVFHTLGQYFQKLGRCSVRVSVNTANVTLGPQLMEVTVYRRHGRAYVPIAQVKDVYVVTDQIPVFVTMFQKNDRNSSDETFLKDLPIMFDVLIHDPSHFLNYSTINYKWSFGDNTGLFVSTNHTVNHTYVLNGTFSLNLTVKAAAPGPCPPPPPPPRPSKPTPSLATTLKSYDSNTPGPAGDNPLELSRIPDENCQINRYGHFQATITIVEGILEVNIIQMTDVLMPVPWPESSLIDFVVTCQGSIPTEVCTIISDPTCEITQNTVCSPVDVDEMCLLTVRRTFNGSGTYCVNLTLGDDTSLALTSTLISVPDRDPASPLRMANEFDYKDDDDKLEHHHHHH
- Assay Notes: antigen ELISA
Assay Metric: EC50
Remember to quote the unit after the number.

Binder: hGPN18-2_H2L3 VH D56A (antibody, V domains shown) VH: QVQLVQSGPGLVQPTQTLTLTCSFSGFSLSTSVMGVGWIRQPSGKGLEWLADIWWADDKDYNPSLKSRLTISKDTSKNQVVLTMTNMDTVDTATYYCARTYYSNYEYYGMDYWGQGTLVTVSS VL: DIVMTQSPDSLAVSLGERATINCRSSQTIILSNGNTYLEWYQQKPGQPPKLLIYKVSNRFSGVPDRFSGSGSGTDFTLTISSLQAEDVAVYYCFQGSHVPFTFGSGTKLEIKR
EC50: 8.98 nM

Binder: hGPN18-2_H2L3 VH V36A (antibody, V domains shown) VH: QVQLVQSGPGLVQPTQTLTLTCSFSGFSLSTSVMGAGWIRQPSGKGLEWLADIWWDDDKDYNPSLKSRLTISKDTSKNQVVLTMTNMDTVDTATYYCARTYYSNYEYYGMDYWGQGTLVTVSS VL: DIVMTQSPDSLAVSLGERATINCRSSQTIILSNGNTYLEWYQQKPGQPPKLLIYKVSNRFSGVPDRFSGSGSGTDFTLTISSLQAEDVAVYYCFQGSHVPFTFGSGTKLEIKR
EC50: 3.43 nM

// next entry
Output EC50 of hGPN18-2_H2L3 VH D57A (antibody, V domains shown) VH: QVQLVQSGPGLVQPTQTLTLTCSFSGFSLSTSVMGVGWIRQPSGKGLEWLADIWWDADKDYNPSLKSRLTISKDTSKNQVVLTMTNMDTVDTATYYCARTYYSNYEYYGMDYWGQGTLVTVSS VL: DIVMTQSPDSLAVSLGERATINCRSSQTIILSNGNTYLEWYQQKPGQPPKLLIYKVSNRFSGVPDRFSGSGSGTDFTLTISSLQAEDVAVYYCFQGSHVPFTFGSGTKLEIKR
5.61 nM

Reference source: patent EP4772193A1
